Data provenance: patent US4529549A

Assay Details: Stability of the compounds in aqueous solutions (HPLC residual content)
Assay type: physicochemical
Condition Parameters: water
Where a name gives a salt, the structure may show the parent alone.
Recorded Endpoint: remaining at 72 h (%)
Reply with just the number (in %).

Below, 3 molecules whose answers are already recorded.
molecule="N=C(N)NCCCCCCCCC(=O)N[C@@H](CO)C(=O)NCCCCNCCCN [Compound 17, trihydrochloride]" value_units=% quantitative_readout=99.7
molecule="C[C@H](NC(=O)CCCCCCNC(=N)N)C(=O)NCCCCNCCCN [Compound 5, trihydrochloride]" value_units=% quantitative_readout=99.6
molecule="N=C(N)NCCCCCCC(=O)N[C@@H](CCCNC(=N)N)C(=O)NCCCCNCCCN [Compound 12, trihydrochloride]" value_units=% quantitative_readout=99.9

Request: Entry CC(=O)O[C@@H](CCCCNC(=N)N)CC(=O)NCC(=O)NCCCCNCCCN [Compound 16, trihydrochloride] has what remaining at 72 h?
Result: 99.2

Request: Entry Cl.Cl.Cl.N=C(N)NCCCCCCC(=O)N[C@@H](CO)C(=O)NCCCCNCCCN [Compound 2, trihydrochloride] has what remaining at 72 h?
Result: 100

Request: Entry N=C(N)NCCCCCCC(=O)N[C@@H](CC(=O)O)C(=O)NCCCCNCCCN [Compound 10, trihydrochloride] has what remaining at 72 h?
Result: 100

====

Assay Details: Stability of the compounds in aqueous solutions (HPLC residual content)
Type: physicochemical
Condition Parameters: water
Where a name gives a salt, the structure may show the parent alone.
Parameter: remaining at 12 h. Scope: all listed entries.
Reply with just the number (in %).

molecule="N=C(N)NCCCCCCC(=O)NC(CCO)C(=O)NCCCCNCCCN (racemic)" quantitative_readout=100
molecule="C[C@H](NC(=O)CCCCCCNC(=N)N)C(=O)NCCCCNCCCN [Compound 5, trihydrochloride]" quantitative_readout=99.8
molecule="Cl.Cl.Cl.N=C(N)NCCCCCCC(=O)N[C@@H](CO)C(=O)NCCCCNCCCN [Compound 2, trihydrochloride]" quantitative_readout=100
molecule="N=C(N)NCCCCCCC(=O)N[C@@H](Cc1ccccc1)C(=O)NCCCCNCCCN [Compound 13, trihydrochloride]" quantitative_readout=99.8
molecule="N=C(N)NCCCCCCC(=O)NCCC(=O)NCCCCNCCCN [Compound 6, trihydrochloride]" quantitative_readout=100
molecule="C[C@@H](O)[C@H](NC(=O)CCCCCCNC(=N)N)C(=O)NCCCCNCCCN [Compound 15, trihydrochloride]" quantitative_readout=99.2
molecule="N=C(N)NCCCC[C@H](O)CC(=O)N[C@@H](CO)C(=O)NCCCCNCCCN [Compound 3, trihydrochloride]" quantitative_readout=99.3
molecule="N=C(N)NCCCCCCCCC(=O)N[C@@H](CO)C(=O)NCCCCNCCCN [Compound 17, trihydrochloride]" quantitative_readout=99.6
molecule="CC(=O)O[C@@H](CCCCNC(=N)N)CC(=O)NCC(=O)NCCCCNCCCN [Compound 16, trihydrochloride]" quantitative_readout=99.9

As a next step, examine the molecule that follows.
Request: Entry N=C(N)NCCCCCCC(=O)NCCCC(=O)NCCCCNCCCN [Compound 7, trihydrochloride] has what remaining at 12 h?
Result: 99.9

====

Assay Details: Stability of the compounds in aqueous solutions (HPLC residual content)
Assay type: physicochemical
Condition Parameters: water
Counter-ions that a name gives are not always drawn.
Recorded Endpoint: remaining at 72 h (%)
Reply with just the number (in %).

Below, 3 molecules whose answers are already recorded.
molecule="Cl.Cl.Cl.N=C(N)NCCCCCCC(=O)NCC(=O)NCCCCNCCCN [Compound 1, trihydrochloride]" recorded_endpoint="remaining at 72 h" quantitative_readout=99.7
molecule="N=C(N)NCCCCCCC(=O)NCCCC(=O)NCCCCNCCCN [Compound 7, trihydrochloride]" recorded_endpoint="remaining at 72 h" quantitative_readout=99.9
molecule="N=C(N)NCCCCCCC(=O)NCCC(=O)NCCCCNCCCN [Compound 6, trihydrochloride]" recorded_endpoint="remaining at 72 h" quantitative_readout=99.6

As a next step, examine the molecule that follows.
Request: Entry N=C(N)NCCCCCCC(=O)N[C@@H](Cc1ccccc1)C(=O)NCCCCNCCCN [Compound 13, trihydrochloride] has what remaining at 72 h?
Result: 100

====

Assay Details: Stability of the compounds in aqueous solutions (HPLC residual content)
Type: physicochemical
Condition Parameters: water
Counter-ions that a name gives are not always drawn.
Parameter: remaining at 12 h. Scope: all listed entries.

Below, 5 compounds whose answers are already recorded.
compound="N=C(N)NCCCCCCC(=O)N[C@@H](Cc1cnc[nH]1)C(=O)NCCCCNCCCN [Compound 14, trihydrochloride]" recorded_endpoint="remaining at 12 h" result=99.1%
compound="N=C(N)NCCCCCCC(=O)N[C@@H](CCCNC(=N)N)C(=O)NCCCCNCCCN [Compound 12, trihydrochloride]" recorded_endpoint="remaining at 12 h" result=100%
compound="N=C(N)NCCCCCCC(=O)N[C@H](CO)C(=O)NCCCCNCCCN [Compound 4, trihydrochloride]" recorded_endpoint="remaining at 12 h" result=101%
compound="CC(C)C[C@H](NC(=O)CCCCCCNC(=N)N)C(=O)NCCCCNCCCN [Compound 9, trihydrochloride]" recorded_endpoint="remaining at 12 h" result=99.7%
compound="Cl.Cl.Cl.N=C(N)NCCCCCCC(=O)NCC(=O)NCCCCNCCCN [Compound 1, trihydrochloride]" recorded_endpoint="remaining at 12 h" result=99.7%

Request: Entry N=C(N)NCCCCCCC(=O)N1CCC[C@H]1C(=O)NCCCCNCCCN [Compound 8, trihydrochloride] has what remaining at 12 h?
Result: 100%

Request: Entry N=C(N)NCCCCCCC(=O)N[C@@H](CC(=O)O)C(=O)NCCCCNCCCN [Compound 10, trihydrochloride] has what remaining at 12 h?
Result: 99.9%

====

Assay Details: Stability of the compounds in aqueous solutions (HPLC residual content)
Format: physicochemical
Condition Parameters: water
Method: Each of the compounds of this invention was dissolved in water to a concentration of 0.5 (w/w)%. The aqueous solution was maintained at 40°±1° C., and sampled at certain time intervals. Each sample was subjected to high-performance liquid chromatographic analysis to measure the area of the peak of the compound at each sampling time, and to calculate the ratio of the area of the peak after the indicated period of time to that at the first sampling time. […]
Structures can show the parent of a compound that is named as a salt.
Recorded Endpoint: remaining at 48 h (%)
Reply with just the number (in %).

Request: Entry N=C(N)NCCCCCCC(=O)N1CCC[C@H]1C(=O)NCCCCNCCCN [Compound 8, trihydrochloride] has what remaining at 48 h?
Result: 99.6

Request: Entry Cl.Cl.Cl.N=C(N)NCCCCCCC(=O)NCC(=O)NCCCCNCCCN [Compound 1, trihydrochloride] has what remaining at 48 h?
Result: 99.7

Request: Entry N=C(N)NCCCCCCC(=O)NCCC(=O)NCCCCNCCCN [Compound 6, trihydrochloride] has what remaining at 48 h?
Result: 99.6

====

Parameter: remaining at 72 h. Scope: all listed entries.
Assay Details: Stability of the compounds in aqueous solutions (HPLC residual content)
Assay type: physicochemical
Condition Parameters: water
Where a name gives a salt, the structure may show the parent alone.
Reply with just the number (in %).

Below, 4 compounds whose answers are already recorded.
compound="N=C(N)NCCCCCCC(=O)N1CCC[C@H]1C(=O)NCCCCNCCCN [Compound 8, trihydrochloride]" quantitative_readout=99.8
compound="N=C(N)NCCCC[C@H](O)CC(=O)N[C@@H](CO)C(=O)NCCCCNCCCN [Compound 3, trihydrochloride]" quantitative_readout=99.6
compound="N=C(N)NCCCCCCC(=O)N[C@@H](Cc1cnc[nH]1)C(=O)NCCCCNCCCN [Compound 14, trihydrochloride]" quantitative_readout=99.5
compound="N=C(N)NCCCCCCC(=O)N[C@H](CO)C(=O)NCCCCNCCCN [Compound 4, trihydrochloride]" quantitative_readout=99.7

Request: Entry CC(C)C[C@H](NC(=O)CCCCCCNC(=N)N)C(=O)NCCCCNCCCN [Compound 9, trihydrochloride] has what remaining at 72 h?
Result: 100

Request: Entry C[C@@H](O)[C@H](NC(=O)CCCCCCNC(=N)N)C(=O)NCCCCNCCCN [Compound 15, trihydrochloride] has what remaining at 72 h?
Result: 100

Request: Entry N=C(N)NCCCCCCC(=O)NC(CCO)C(=O)NCCCCNCCCN (racemic) [Compound 18] has what remaining at 72 h?
Result: 99.3

====

Assay Details: Stability of the compounds in aqueous solutions (HPLC residual content)
Format: physicochemical
Condition Parameters: water
Structures can show the parent of a compound that is named as a salt.
Parameter: remaining at 24 h. Scope: all listed entries.
Reply with just the number (in %).

Below, 2 molecules whose answers are already recorded.
molecule="N=C(N)NCCCCCCC(=O)NCCCC(=O)NCCCCNCCCN [Compound 7, trihydrochloride]" recorded_endpoint="remaining at 24 h" quantitative_readout=100
molecule="N=C(N)NCCCCCCC(=O)N[C@@H](CC(=O)O)C(=O)NCCCCNCCCN [Compound 10, trihydrochloride]" recorded_endpoint="remaining at 24 h" quantitative_readout=99.4

Request: Entry N=C(N)NCCCCCCC(=O)NC(CCO)C(=O)NCCCCNCCCN (racemic) [Compound 18] has what remaining at 24 h?
Result: 99.5

Request: Entry N=C(N)NCCCCCCC(=O)N[C@@H](Cc1cnc[nH]1)C(=O)NCCCCNCCCN [Compound 14, trihydrochloride] has what remaining at 24 h?
Result: 99

Request: Entry C[C@@H](O)[C@H](NC(=O)CCCCCCNC(=N)N)C(=O)NCCCCNCCCN [Compound 15, trihydrochloride] has what remaining at 24 h?
Result: 99.8

Request: Entry Cl.Cl.Cl.N=C(N)NCCCCCCC(=O)N[C@@H](CO)C(=O)NCCCCNCCCN [Compound 2, trihydrochloride] has what remaining at 24 h?
Result: 100

Request: Entry N=C(N)NCCCCCCC(=O)N[C@H](CO)C(=O)NCCCCNCCCN [Compound 4, trihydrochloride] has what remaining at 24 h?
Result: 100

Request: Entry N=C(N)NCCCCCCC(=O)N[C@@H](CCCNC(=N)N)C(=O)NCCCCNCCCN [Compound 12, trihydrochloride] has what remaining at 24 h?
Result: 99.4

Request: Entry N=C(N)NCCCCCCCCC(=O)N[C@@H](CO)C(=O)NCCCCNCCCN [Compound 17, trihydrochloride] has what remaining at 24 h?
Result: 100

Request: Entry Cl.Cl.Cl.N=C(N)NCCCCCCC(=O)NCC(=O)NCCCCNCCCN [Compound 1, trihydrochloride] has what remaining at 24 h?
Result: 100

Request: Entry N=C(N)NCCCC[C@H](O)CC(=O)N[C@@H](CO)C(=O)NCCCCNCCCN [Compound 3, trihydrochloride] has what remaining at 24 h?
Result: 99.5

Request: Entry CC(C)C[C@H](NC(=O)CCCCCCNC(=N)N)C(=O)NCCCCNCCCN [Compound 9, trihydrochloride] has what remaining at 24 h?
Result: 99.9

Request: Entry N=C(N)NCCCCCCC(=O)N1CCC[C@H]1C(=O)NCCCCNCCCN [Compound 8, trihydrochloride] has what remaining at 24 h?
Result: 100

Request: Entry CC(=O)O[C@@H](CCCCNC(=N)N)CC(=O)NCC(=O)NCCCCNCCCN [Compound 16, trihydrochloride] has what remaining at 24 h?
Result: 99.5
